Where do the numbers come from? From ChEMBL document CHEMBL5131544.

test: Dark toxicity against human MCF7 cells assessed as reduction in cell viability after 3 hrs by MTT assay
Format: cell-based
measured_attribute: CC50 at 3 h

[Q] CC50 at 3 h for O=C(Nc1ccc2c3c(cccc13)C(=O)C=C2)c1ccccc1 ?
[A] > 32 µM

* * *

test: Dark toxicity against human HepG2 cells assessed as reduction in cell viability after 3 hrs by MTT assay
Type: cell-based
measured_attribute: CC50 at 3 h

[Q] CC50 at 3 h for O=C(Nc1ccc2c3c(cccc13)C(=O)C=C2)c1ccccc1 ?
[A] > 32 µM
